Hello, the source for this data is paper PMC5727842, in case you need it.

Biological target: xanthine oxidase from buttermilk (Bos taurus, UniProt P80457)
Construct: 0.3 U/mL enzymes (xanthine oxidase from buttermilk); purchased Sigma-Aldrich (Singapore); host or cells: buttermilk (natural source)
Sequence (P80457 whole entry): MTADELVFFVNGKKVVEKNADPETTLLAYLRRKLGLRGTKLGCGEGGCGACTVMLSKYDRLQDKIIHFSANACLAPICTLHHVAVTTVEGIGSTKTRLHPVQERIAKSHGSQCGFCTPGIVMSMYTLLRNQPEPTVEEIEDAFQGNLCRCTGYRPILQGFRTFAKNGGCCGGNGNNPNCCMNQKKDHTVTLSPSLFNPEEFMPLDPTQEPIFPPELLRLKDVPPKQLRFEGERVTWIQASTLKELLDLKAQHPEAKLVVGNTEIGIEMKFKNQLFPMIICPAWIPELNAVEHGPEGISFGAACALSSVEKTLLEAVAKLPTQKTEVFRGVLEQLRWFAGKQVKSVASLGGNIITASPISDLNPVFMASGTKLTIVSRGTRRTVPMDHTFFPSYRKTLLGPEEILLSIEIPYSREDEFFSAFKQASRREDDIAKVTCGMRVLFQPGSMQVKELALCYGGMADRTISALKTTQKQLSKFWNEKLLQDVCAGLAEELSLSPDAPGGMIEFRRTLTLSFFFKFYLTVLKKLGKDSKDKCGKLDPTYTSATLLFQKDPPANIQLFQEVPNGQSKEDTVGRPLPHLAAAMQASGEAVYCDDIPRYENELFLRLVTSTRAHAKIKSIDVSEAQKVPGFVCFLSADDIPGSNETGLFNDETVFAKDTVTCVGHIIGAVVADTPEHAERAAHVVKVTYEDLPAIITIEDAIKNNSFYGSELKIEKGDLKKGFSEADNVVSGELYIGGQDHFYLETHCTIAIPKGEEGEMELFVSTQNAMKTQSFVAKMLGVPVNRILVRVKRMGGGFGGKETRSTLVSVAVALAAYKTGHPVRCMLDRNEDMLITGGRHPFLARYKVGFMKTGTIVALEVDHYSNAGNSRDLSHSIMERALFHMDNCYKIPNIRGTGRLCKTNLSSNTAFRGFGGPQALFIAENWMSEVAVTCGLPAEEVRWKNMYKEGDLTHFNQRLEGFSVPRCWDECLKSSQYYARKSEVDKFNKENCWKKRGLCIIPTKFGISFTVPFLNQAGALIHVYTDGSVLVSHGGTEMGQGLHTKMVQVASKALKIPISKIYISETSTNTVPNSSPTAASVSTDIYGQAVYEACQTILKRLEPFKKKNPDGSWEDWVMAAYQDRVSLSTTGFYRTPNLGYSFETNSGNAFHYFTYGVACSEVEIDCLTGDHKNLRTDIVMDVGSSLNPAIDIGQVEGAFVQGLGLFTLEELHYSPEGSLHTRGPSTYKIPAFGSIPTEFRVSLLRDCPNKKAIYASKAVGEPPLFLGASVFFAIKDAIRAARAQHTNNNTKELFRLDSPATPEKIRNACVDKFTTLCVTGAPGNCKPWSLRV
Assay: Xanthine oxidase inhibitory assay (XOI)
Format: biochemical
Settings: discussion
VALUE KIND: xanthine oxidase inhibitory effect (in words)

compound="Oc1cc(O)c2c(c1)O[C@H](c1ccc(O)c(O)c1)[C@@H](O)C2 [(+)-Catechin]" target_system="xanthine oxidase from buttermilk (Bos taurus, UniProt P80457)" val=inactive
compound="Oc1cc(O)c2c(c1)O[C@H](c1ccc(O)c(O)c1)[C@H](O)C2 [(−)-Epicatechin]" target_system="xanthine oxidase from buttermilk (Bos taurus, UniProt P80457)" val=inactive

----------
As a worked illustration, we turn to pIC50 data collected for DPP-4 (Homo sapiens, UniProt P27487).
pIC50: −log10 of the molar value.

Check the records and state pIC50 for O=c1cc(-c2ccccc2)oc2c(O)c(O)cc(O)c12 [Norwogonin, 5,7,8-Trihydroxyflavone]
< 3.43

Look up and report measured pIC50 for this entry: COc1ccc2c(=O)cc(-c3ccccc3)oc2c1O [8-Hydroxy-7-methoxyflavone]
< 3.43

Provide measured pIC50 value, entry: O=c1c(O)c(-c2ccc(O)cc2)oc2cc(O)cc(O)c12 [Kaempferol, 4′,3,5,7-Tetrahydroxyflavone]
3.79

Supply reported pIC50 belonging to this molecule: COc1cc(OC)c2c(=O)cc(-c3ccccc3)oc2c1OC [Methyl ether (wogonin), 5,7,8-Trimethoxyflavone]
< 3.49

----------
Kindly supply the reported FRAP antioxidant capacity values for the records listed here.
Assay: Ferric reducing antioxidant power (FRAP)

Please report FRAP antioxidant capacity for the following molecule: COc1cc(OC)c2c(=O)cc(-c3ccccc3)oc2c1OC [Methyl ether (wogonin), 5,7,8-Trimethoxyflavone]
1.68 ± 0.18 AAE μg of ascorbic acid/g

Identify measured FRAP antioxidant capacity corresponding to COc1cc(O)c2c(=O)cc(-c3ccccc3)oc2c1 [Techtochrysin, 5-Hydroxy-7-methoxyflavone]
11.49 ± 0.32 AAE μg of ascorbic acid/g

Give reported FRAP antioxidant capacity value for O=c1c(O)c(-c2ccc(O)cc2)oc2cc(O)cc(O)c12 [Kaempferol, 4′,3,5,7-Tetrahydroxyflavone]
265.65 ± 5.46 AAE μg of ascorbic acid/g

Read off the recorded FRAP antioxidant capacity for CC(=O)Oc1cc(OC(C)=O)c2c(=O)cc(-c3ccccc3)oc2c1OC(C)=O [Acetate (norwogonin), 5,7,8-Triacetoxyflavone]
39.63 ± 1.01 AAE μg of ascorbic acid/g

Respond only with FRAP antioxidant capacity recorded for Oc1cc(O)c2c(c1)O[C@H](c1ccc(O)c(O)c1)[C@@H](O)C2 [(+)-Catechin]
152.07 ± 1.95 AAE μg of ascorbic acid/g

Hello, please tell me recorded FRAP antioxidant capacity for this one: O=C1O[C@H]([C@@H](O)CO)C(O)=C1O [Ascorbic acid, ascorbic acid, reference compound]
114.58 AAE μg of ascorbic acid/g

Give me measured FRAP antioxidant capacity, please, for this molecule: Oc1cc(O)c2c(c1)O[C@H](c1ccc(O)c(O)c1)[C@H](O)C2 [(−)-Epicatechin]
152.14 ± 7.30 AAE μg of ascorbic acid/g

Please report FRAP antioxidant capacity for the following molecule: COc1ccc2c(=O)cc(-c3ccccc3)oc2c1O [8-Hydroxy-7-methoxyflavone]
104.92 ± 8.29 AAE μg of ascorbic acid/g

Tell me measured FRAP antioxidant capacity for COc1c(OC(C)=O)cc(OC(C)=O)c2c(=O)cc(-c3ccccc3)oc12 [Acetate (wogonin), 5,7-Diacetoxy-8-methoxyflavone] please.
5.06 ± 3.24 AAE μg of ascorbic acid/g
